organism: Rattus norvegicus; test: DrugMatrix - Regimen: Daily Repeat; assay type: toxicity, organism-based, Sprague-Dawley; parameters: regimen Daily Repeat, gender Male, age 6-8 weeks; details: in vivo, po, 0 mg/kg, 120 h, tissue Blood, route oral GAVAGE, dose level Control, time 5 day, vehicle .5 % CMC
Consider the following compounds; for each one, report its HEMATOCRIT.
One number for each entry, in %.

| Compound | Unit of measurement | HEMATOCRIT |
| --- | --- | --- |
| COc1ccc(C2C(=O)c3ccccc3C2=O)cc1 [ANISINDIONE] | % | 40.02 |
| NC1CCN(c2nc3c(cc2F)c(=O)c(C(=O)O)cn3-c2ccc(F)cc2F)C1 (centres undefined) [TOSUFLOXACIN] | % | 41.12 |
| O=C1Nc2ccc(Cl)cc2C(c2ccccc2Cl)=NC1O (centres undefined) [LORAZEPAM] | % | 33.98 |

Give HEMATOCRIT for all compounds that follow.
1. O=C1C(CC[S+]([O-])c2ccccc2)C(=O)N(c2ccccc2)N1c1ccccc1 (centres undefined) [SULFINPYRAZONE]
2. Cn1c(=O)c2c(ncn2CC(O)CO)n(C)c1=O (centres undefined) [DYPHYLLINE]
3. C[C@H]1O[C@@H](n2cc(F)c(=O)[nH]c2=O)[C@H](O)[C@@H]1O [DOXIFLURIDINE]
4. CCN(CC)CCOc1ccc(/C(=C(/Cl)c2ccccc2)c2ccccc2)cc1 [ENCLOMIPHENE]
5. CC(=O)Oc1ccc(C(c2ccc(OC(C)=O)cc2)c2ccccn2)cc1 [BISACODYL]
6. CN(C/C=C/C#CC(C)(C)C)Cc1cccc2ccccc12 [TERBINAFINE]

**A:**
33.98
35.52
33.8
35.77
37.87
41.12

----------
species on record: Rattus norvegicus; assay: DrugMatrix - Regimen: Daily Repeat; assay type: toxicity, organism-based, Sprague-Dawley; set-up: regimen Daily Repeat, gender Male, age 6-8 weeks; settings: in vivo, po, 0 mg/kg, 72 h, tissue Blood, route oral GAVAGE, dose level Control, time 3 day, vehicle 100 % WATER
Measurement label: HEMATOCRIT (%)
Give bare numbers, in %.

Example entries and their recorded answers appear below.
| Compound | HEMATOCRIT (%) |
| --- | --- |
| CN(C)CCOC(c1ccccc1)c1ccccc1 [DIPHENHYDRAMINE] | 34.38 |
| C[C@]12C=CC(=O)C=C1CC[C@@H]1[C@@H]2[C@@H](O)C[C@@]2(C)[C@H]1CC[C@]2(O)C(=O)CO | 35.6 |

Next item in the queue.
**Q:** Specify measured HEMATOCRIT for `Cc1ccc(NC(=O)c2ccc(CN3CCN(C)CC3)cc2)cc1Nc1nccc(-c2cccnc2)n1` .
**A:** 35.35

----------
species: Rattus norvegicus; experiment: DrugMatrix - Regimen: Daily Repeat; type: toxicity, organism-based, Sprague-Dawley; design: regimen Daily Repeat, gender Male, age 6-8 weeks; conditions: in vivo, sc, 2 mg/kg, 120 h, tissue Blood, route mini-PUMP - SUBCUTANEOUS, dose level High, time 5 day, vehicle 100 % SALINE
Measurement label: ABSOLUTE EOSINOPHIL (cells/µL)
Give bare numbers, in cells/µL.

**Q:** Specify measured ABSOLUTE EOSINOPHIL for CC(C)NCC(O)c1ccc(O)c(O)c1 (stereo unspecified) .
**A:** 110

----------
organism: Rattus norvegicus; assay: DrugMatrix - Regimen: Daily Repeat; format: toxicity, organism-based, Sprague-Dawley; design: regimen Daily Repeat, gender Male, age 6-8 weeks; details: in vivo, po, 2000 mg/kg, 72 h, tissue Plasma, route oral GAVAGE, dose level High, time 3 day, vehicle .5 % CMC
Consider the following molecules; for each one, report its LACTATE DEHYDROGENASE.
Give the figure together with its unit, number first.

| Molecule | Result |
| --- | --- |
| O=C1Nc2ccc(Cl)cc2C(c2ccccc2Cl)=NC1O (centres undefined) [LORAZEPAM] | 346.33 u/L |
| CN/C(=N/CCSCc1nc[nH]c1C)NC#N [CIMETIDINE] | 334.33 u/L |
| COc1cc2nc(N3CCN(C(=O)c4ccco4)CC3)nc(N)c2cc1OC [PRAZOSIN] | 177.67 u/L |

Next item in the queue.
**Q:** Specify measured LACTATE DEHYDROGENASE for CC1(C)S[C@@H]2[C@H](NC(=O)[C@H](N)c3ccccc3)C(=O)N2[C@H]1C(=O)O [AMPICILLIN] .
**A:** 104 u/L

----------
species: Rattus norvegicus; assay: DrugMatrix - Regimen: Daily Repeat; format: toxicity, organism-based, Sprague-Dawley; parameters: regimen Daily Repeat, gender Male, age 6-8 weeks; conditions: in vivo, po, 0 mg/kg, 72 h, tissue Blood, route oral GAVAGE, dose level Control, time 3 day, vehicle .5 % CMC
Measurement label: ABSOLUTE EOSINOPHIL
Give the figure together with its unit, number first.

Example entries and their recorded answers appear below.
| Molecule | Result |
| --- | --- |
| COC1=C(OC)C(=O)C(CCCCCCCCCCO)=C(C)C1=O | 0 CELLS/uL |
| COc1cc2nc(N3CCN(C(=O)c4ccco4)CC3)nc(N)c2cc1OC | 171.33 CELLS/uL |
| CN(C)[C@@H]1C(O)=C(C(N)=O)C(=O)[C@@]2(O)C(O)=C3C(=O)c4c(O)ccc(Cl)c4[C@@](C)(O)[C@H]3C[C@@H]12 | 32.5 CELLS/uL |

Give ABSOLUTE EOSINOPHIL for all molecules that follow.
1. CN/C(=N/CCSCc1nc[nH]c1C)NC#N
2. Cn1c(=O)c2c(ncn2CC(O)CO)n(C)c1=O (stereo not given)
3. O=C1C(CC[S+]([O-])c2ccccc2)C(=O)N(c2ccccc2)N1c1ccccc1 (stereo not given)
4. CCN(CC)CCOc1ccc(/C(=C(/Cl)c2ccccc2)c2ccccc2)cc1
5. C[C@H]1O[C@@H](n2cc(F)c(=O)[nH]c2=O)[C@H](O)[C@@H]1O
6. O=C1Nc2ccc(Cl)cc2C(c2ccccc2Cl)=NC1O (stereo not given)
7. O=C1CN=C(c2ccccc2Cl)c2cc([N+](=O)[O-])ccc2N1

**A:**
1: 0 CELLS/uL; 2: 32.5 CELLS/uL; 3: 171.33 CELLS/uL; 4: 222.83 CELLS/uL; 5: 0 CELLS/uL; 6: 171.33 CELLS/uL; 7: 0 CELLS/uL

----------
organism: Rattus norvegicus; assay: DrugMatrix - Regimen: Daily Repeat; assay type: toxicity, organism-based, Sprague-Dawley; set-up: regimen Daily Repeat, gender Male, age 6-8 weeks; details: in vivo, po, 0 mg/kg, 120 h, tissue Plasma, route oral GAVAGE, dose level Control, time 5 day, vehicle .5 % CMC
Measurement label: ALANINE AMINOTRANSFERASE (u/L)
Numbers only, in u/L.

| Compound | ALANINE AMINOTRANSFERASE (u/L) |
| --- | --- |
| Clc1ccccc1CN1CCc2sccc2C1 [TICLOPIDINE] | 26.33 |
| CN(C)[C@@H]1C(O)=C(C(N)=O)C(=O)[C@@]2(O)C(O)=C3C(=O)c4c(O)ccc(Cl)c4[C@@](C)(O)[C@H]3C[C@@H]12 [CHLORTETRACYCLINE] | 58.67 |
| Cn1c(=O)c2c(ncn2CC(O)CO)n(C)c1=O (centres undefined) [DYPHYLLINE] | 58.67 |
| NC1CCN(c2nc3c(cc2F)c(=O)c(C(=O)O)cn3-c2ccc(F)cc2F)C1 (centres undefined) [TOSUFLOXACIN] | 36.33 |

Give ALANINE AMINOTRANSFERASE for all compounds that follow.
1. CC(=O)Oc1ccc(C(c2ccc(OC(C)=O)cc2)c2ccccn2)cc1 [BISACODYL]
2. O=C1CN=C(c2ccccc2Cl)c2cc([N+](=O)[O-])ccc2N1 [CLONAZEPAM]
3. C[C@H]1O[C@@H](n2cc(F)c(=O)[nH]c2=O)[C@H](O)[C@@H]1O [DOXIFLURIDINE]
4. COc1cc2nc(N3CCN(C(=O)c4ccco4)CC3)nc(N)c2cc1OC [PRAZOSIN]
5. O=C1Nc2ccc(Cl)cc2C(c2ccccc2Cl)=NC1O (centres undefined) [LORAZEPAM]

**A:**
1. 38.67
2. 54.5
3. 54.5
4. 49.17
5. 49.17

----------
Consider the following compounds; for each one, report its MONOCYTE.
species on record: Rattus norvegicus; experiment: DrugMatrix - Regimen: Daily Repeat; assay type: toxicity, organism-based, Sprague-Dawley; parameters: regimen Daily Repeat, gender Male, age 6-8 weeks; conditions: in vivo, po, 1500 mg/kg, 120 h, tissue Blood, route oral GAVAGE, dose level High, time 5 day, vehicle .5 % CMC
Answers are plain numbers, in %.

Example entries and their recorded answers appear below.
| Compound | Unit of measurement | MONOCYTE |
| --- | --- | --- |
| O=c1cnn([C@@H]2O[C@H](CO)[C@@H](O)[C@H]2O)c(=O)[nH]1 | % | 0.33 |
| CC(C)=CCC/C(C)=C/CO | % | 5 |

Give MONOCYTE for all compounds that follow.
1. COC(=O)Nc1nc2ccc([S+]([O-])c3ccccc3)cc2[nH]1 (stereo not given)
2. CC(C)Oc1ccc2c(=O)c(-c3ccccc3)coc2c1
3. CN(C)[C@@H]1C(O)=C(C(N)=O)C(=O)[C@@]2(O)C(O)=C3C(=O)c4c(O)ccc(Cl)c4[C@@](C)(O)[C@H]3C[C@@H]12

**A:**
1. 0.33
2. 0.33
3. 0

The origin of these recorded values is ChEMBL document CHEMBL3885881.
